conditions: [M+H]+; instrument: TW; calibrated with polyalanine and drug standards
Readout type: collision cross section (N2) (Å²)

>>> readout_number("CCOC(=O)C1=C[C@@H](OC(CC)CC)[C@H](NC(C)=O)[C@@H](N)C1")
180.7
>>> readout_number("CCCCN(CCCC)CCCOC(=O)c1ccc(N)cc1")
179
>>> readout_number("COc1cc(OC)c(-c2c(OC)cc(OC)cc2OC)c(OC)c1")
175.2
>>> readout_number("OC[C@H]1O[C@@H](n2cnc3c(NCc4ccco4)ncnc32)[C@H](O)[C@@H]1O [KINETIN RIBOSIDE]")
179
>>> readout_number("COc1ccc([C@H]2Oc3cc(OC)cc(OC)c3C[C@H]2O)cc1 [EPIAFZELECHIN TRIMETHYL ETHER]")
170
>>> readout_number("Cc1ccc2c(c1)CC[C@H]1CC(=O)CC[C@]21C")
148.1
>>> readout_number("COc1cc(O)c(C(C)=O)c(OC)c1")
135.9
>>> readout_number("NC(N)=NC(=O)Cc1c(Cl)cccc1Cl")
148.9
>>> readout_number("CC(=O)c1c(O)cc(O)cc1O")
129
>>> readout_number("CN1CCN(C(=O)OC2c3nccnc3C(=O)N2c2ccc(Cl)cn2)CC1 (configuration not stated)")
186.5
>>> readout_number("CC1=C(CC(=O)O)c2cc(F)ccc2/C1=C\\c1ccc(S(C)=O)cc1 (configuration not stated)")
191.6
>>> readout_number("O=[N+]([O-])O[C@H]1CO[C@H]2[C@@H]1OC[C@H]2O[N+](=O)[O-] [ISOSORBIDE DINITRATE]")
151.6
>>> readout_number("O=c1[nH]c2ccccc2n1CCCN1CCC(n2c(=O)[nH]c3cc(Cl)ccc32)CC1")
201.8
>>> readout_number("CCCCNc1cc(C(=O)O)cc(S(N)(=O)=O)c1Oc1ccccc1 [BUMETANIDE]")
185.1
>>> readout_number("CCN(CC)CCOC(=O)c1ccc(N)cc1")
154.7
>>> readout_number("CC(C)Cn1c(=O)n(C)c(=O)c2[nH]cnc21")
147.8
>>> readout_number("COc1ccc2c(c1O)-c1c(OC)c(OC)cc3c1[C@H](C2)N(C)CC3 [S-ISOCORYDINE (+)]")
181.9
